molecular target: FLT3(D835V) (Homo sapiens (Human), UniProt P36888, D835V); assay: KINOMEscan binding, FLT3(D835V)
propertyLabel: Kd (pM)
Give just the number in pM; leave the unit off.

# input # returns recorded Kd (system: FLT3(D835V) (Homo sapiens (Human), UniProt P36888, D835V)) for COc1cc(N2CCC(N3CCN(C)CC3)CC2)ccc1Nc1ncc(Cl)c(Nc2ccccc2NS(C)(=O)=O)n1 [Example 10]
# output 290

# input Then COc1cc(N2CCC(N(C)C)CC2)ccc1Nc1ncc(Cl)c(Nc2ccccc2NS(C)(=O)=O)n1 [Example 11] ?
# output 82

----------
molecular target: FLT1 (Homo sapiens (Human), UniProt P17948); test: KINOMEscan binding, FLT1
Sequence (P17948 27-1338): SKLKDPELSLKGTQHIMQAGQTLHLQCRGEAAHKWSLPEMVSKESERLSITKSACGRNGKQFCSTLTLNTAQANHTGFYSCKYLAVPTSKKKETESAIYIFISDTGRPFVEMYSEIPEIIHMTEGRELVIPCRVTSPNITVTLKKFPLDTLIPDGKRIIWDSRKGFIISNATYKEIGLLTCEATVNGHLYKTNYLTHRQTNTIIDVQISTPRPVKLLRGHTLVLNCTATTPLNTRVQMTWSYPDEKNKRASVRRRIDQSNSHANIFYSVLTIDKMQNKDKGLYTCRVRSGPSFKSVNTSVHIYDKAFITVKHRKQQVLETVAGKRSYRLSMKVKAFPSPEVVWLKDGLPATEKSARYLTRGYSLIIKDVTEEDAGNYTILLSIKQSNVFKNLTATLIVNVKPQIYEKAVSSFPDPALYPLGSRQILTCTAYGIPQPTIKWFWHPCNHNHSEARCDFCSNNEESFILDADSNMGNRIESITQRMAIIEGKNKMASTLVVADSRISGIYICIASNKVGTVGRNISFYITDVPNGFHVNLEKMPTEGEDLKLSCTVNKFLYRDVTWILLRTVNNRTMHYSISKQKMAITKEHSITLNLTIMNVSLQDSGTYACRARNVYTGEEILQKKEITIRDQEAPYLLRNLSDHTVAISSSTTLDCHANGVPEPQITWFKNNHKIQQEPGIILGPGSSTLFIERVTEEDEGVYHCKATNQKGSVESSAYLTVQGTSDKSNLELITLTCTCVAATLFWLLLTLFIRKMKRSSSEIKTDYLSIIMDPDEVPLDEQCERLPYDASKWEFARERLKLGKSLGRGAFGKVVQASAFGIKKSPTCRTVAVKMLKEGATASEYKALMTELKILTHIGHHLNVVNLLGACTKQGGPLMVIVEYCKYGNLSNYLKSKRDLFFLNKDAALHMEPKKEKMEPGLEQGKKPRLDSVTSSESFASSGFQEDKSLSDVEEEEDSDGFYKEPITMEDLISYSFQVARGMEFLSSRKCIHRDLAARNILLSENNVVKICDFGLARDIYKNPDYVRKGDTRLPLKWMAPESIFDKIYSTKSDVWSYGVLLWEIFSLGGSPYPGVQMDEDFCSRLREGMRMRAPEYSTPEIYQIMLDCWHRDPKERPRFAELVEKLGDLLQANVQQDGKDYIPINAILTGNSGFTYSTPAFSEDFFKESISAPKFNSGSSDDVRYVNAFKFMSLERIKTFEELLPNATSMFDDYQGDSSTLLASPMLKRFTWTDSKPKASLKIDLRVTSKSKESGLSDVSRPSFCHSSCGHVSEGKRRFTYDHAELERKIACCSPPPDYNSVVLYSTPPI
pKd: −log10 of the molar value.
propertyLabel: pKd

# input pKd lookup needed for COc1cc(N2CCC(N3CCN(C)CC3)CC2)ccc1Nc1ncc(Cl)c(Nc2ccccc2NS(C)(=O)=O)n1 , thanks.
# output < 5.00

----------
Tested on: Ba/F3 EGFR del19/T790M cell line
Experiment: CellTiter-Glo cell viability, Ba/F3 EGFR del19/T790M
Format: cell-based
Settings: 72 h, read-out: Ba/F3 EGFR del19/T790M IC50
Procedure: The measurement of an activity on wild-type and mutation Ba/F3 EGFR cell line of the compound of the present invention was experimented by utilizing the CellTiter-Glo system sold by Promega, as follow. The CellTiter-Glo assay is a method for measuring the ATP present in cells in cell culture conditions to determine the cell viability. The analysis of an EGFR inhibitory ability effect of the compound was carried out in accordance with the analysis reaction recipe below. […]
propertyLabel: pIC50
Answer as the number alone; pIC50 is minus log10 of concentration in mol/L.

# input Name the recorded pIC50 for COc1cc(N2CCC(N3CCN(CCO)CC3)CC2)ccc1Nc1ncc(Cl)c(Nc2ccccc2NS(C)(=O)=O)n1 [Example 22] .
# output 6.41

# input Further, for COc1cc(N2CCC(N3CCN(C)CC3)CC2)ccc1Nc1ncc(Cl)c(Nc2ccccc2NS(C)(=O)=O)n1 [Example 10] ?
# output 7.00

----------
For each record, write down the corresponding Kd.
target: FLT3(ITD) (Homo sapiens, UniProt P36888, ITD); assay: KINOMEscan binding, FLT3(ITD)
State the result as a value with its unit after it.

# input Reported Kd for FLT3(ITD) (Homo sapiens, UniProt P36888, ITD), given COc1cc(N2CCC(N(C)C)CC2)ccc1Nc1ncc(Cl)c(Nc2ccccc2NS(C)(=O)=O)n1 [Example 11] ?
# output 0.0042 µM

# input Same lookup for COc1cc(N2CCC(N3CCN(C)CC3)CC2)ccc1Nc1ncc(Cl)c(Nc2ccccc2NS(C)(=O)=O)n1 [Example 10] , please.
# output 0.018 µM

----------
target: FLT3(D835Y) (Homo sapiens (Human), UniProt P36888, D835Y); experiment: KINOMEscan binding, FLT3(D835Y)
Kindly supply the reported pKd values for the records listed here.
Note: pKd values are expressed as the negative base-10 logarithm of concentration in M.

# input Requested read-out: pKd. Entry: COc1cc(N2CCC(N3CCN(C)CC3)CC2)ccc1Nc1ncc(Cl)c(Nc2ccccc2NS(C)(=O)=O)n1
# output 8.38

# input What about COc1cc(N2CCC(N(C)C)CC2)ccc1Nc1ncc(Cl)c(Nc2ccccc2NS(C)(=O)=O)n1 ?
# output 8.82

----------
biological target: FLT3(ITD, F691L) (Homo sapiens, UniProt P36888, F691L/ITD); test: KINOMEscan binding, FLT3(ITD, F691L)
propertyLabel: Kd (nM)
Respond with the bare value in nM.

# input Fill in the recorded Kd for this compound, with FLT3(ITD, F691L) (Homo sapiens, UniProt P36888, F691L/ITD) as test system: COc1cc(N2CCC(N3CCN(C)CC3)CC2)ccc1Nc1ncc(Cl)c(Nc2ccccc2NS(C)(=O)=O)n1
# output 1.1

# input // query: COc1cc(N2CCC(N(C)C)CC2)ccc1Nc1ncc(Cl)c(Nc2ccccc2NS(C)(=O)=O)n1
# output 0.27

----------
biological target: EGFR wt. (Homo sapiens (Human), UniProt P00533); test: HTRF enzyme assay, wild-type EGFR; conditions: recombinant enzyme
Sequence (P00533 25-1210): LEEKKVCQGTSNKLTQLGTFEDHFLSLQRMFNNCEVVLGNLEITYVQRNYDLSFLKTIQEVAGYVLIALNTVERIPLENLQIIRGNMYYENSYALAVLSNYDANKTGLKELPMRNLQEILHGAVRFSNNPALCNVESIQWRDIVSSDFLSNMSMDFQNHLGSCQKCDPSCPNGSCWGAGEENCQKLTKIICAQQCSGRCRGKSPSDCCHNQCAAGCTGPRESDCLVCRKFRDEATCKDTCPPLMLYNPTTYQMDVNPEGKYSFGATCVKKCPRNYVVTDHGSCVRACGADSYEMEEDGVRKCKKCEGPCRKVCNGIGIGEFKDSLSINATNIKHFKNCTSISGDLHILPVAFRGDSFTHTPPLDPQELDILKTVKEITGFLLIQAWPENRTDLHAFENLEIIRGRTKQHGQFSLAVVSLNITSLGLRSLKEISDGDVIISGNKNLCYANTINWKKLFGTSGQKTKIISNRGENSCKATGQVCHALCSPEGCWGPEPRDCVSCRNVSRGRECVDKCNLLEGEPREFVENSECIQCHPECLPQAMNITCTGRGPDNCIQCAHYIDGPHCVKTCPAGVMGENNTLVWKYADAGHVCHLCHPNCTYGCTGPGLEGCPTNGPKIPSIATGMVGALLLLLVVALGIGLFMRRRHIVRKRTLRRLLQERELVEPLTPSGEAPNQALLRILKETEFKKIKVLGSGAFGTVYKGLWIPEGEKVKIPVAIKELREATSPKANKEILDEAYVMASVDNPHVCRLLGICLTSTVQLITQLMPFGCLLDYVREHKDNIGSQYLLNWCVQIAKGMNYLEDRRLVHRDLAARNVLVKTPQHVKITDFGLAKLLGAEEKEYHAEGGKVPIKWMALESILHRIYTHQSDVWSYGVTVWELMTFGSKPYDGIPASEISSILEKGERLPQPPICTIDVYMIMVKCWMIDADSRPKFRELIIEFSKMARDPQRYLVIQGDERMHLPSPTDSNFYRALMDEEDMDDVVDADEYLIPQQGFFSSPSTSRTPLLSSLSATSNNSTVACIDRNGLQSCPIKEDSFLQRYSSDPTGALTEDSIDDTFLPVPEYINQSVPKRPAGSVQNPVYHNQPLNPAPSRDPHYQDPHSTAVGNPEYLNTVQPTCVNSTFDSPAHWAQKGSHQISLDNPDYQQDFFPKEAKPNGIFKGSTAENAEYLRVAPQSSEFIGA
pIC50: −log10 of the molar value.
Assign t whenever pIC50 does not fall below 6; assign f whenever it does.

# input Kindly determine if pIC50 recorded for COc1cc(N2CCN(C3CCNCC3)CC2)ccc1Nc1ncc(Cl)c(Nc2ccccc2NS(C)(=O)=O)n1 [Example 27] is above or exactly 6.
# output t

# input What do you get for COc1cc(N2CCC(N(C)C)CC2)ccc1Nc1ncc(Cl)c(Nc2ccccc2NS(C)(=O)=O)n1 [Example 11] ?
# output t

# input Okay, and COc1cc(C2CCNCC2)ccc1Nc1ncc(Cl)c(Nc2ccccc2NS(N)(=O)=O)n1 [Example 6] ?
# output t

# input Now consider COc1cc(N2CCN(C3CCN(C)CC3)CC2)ccc1Nc1ncc(Cl)c(Nc2ccccc2NS(C)(=O)=O)n1 [Example 25] and answer again.
# output t

# input Now consider COc1cc(N2CCNCC2)ccc1Nc1ncc(Br)c(Nc2ccccc2NS(N)(=O)=O)n1 [Example 30] and answer again.
# output f

# input Another compound to check: COc1cc(N2CCNCC2)ccc1Nc1ncc(C(F)(F)F)c(Nc2ccccc2NS(C)(=O)=O)n1 [Example 31]
# output t

# input Further, for COc1cc(N2CCC(N3CCCC3)CC2)ccc1Nc1ncc(Cl)c(Nc2ccccc2NS(C)(=O)=O)n1 [Example 35] ?
# output t

# input # repeat for COc1cc(N2CCC(N3CCN(C)CC3)CC2)ccc1Nc1ncc(Cl)c(Nc2ccccc2NS(C)(=O)=O)n1 [Example 10]
# output t

# input And COc1cc(C2CCN(CCO)CC2)ccc1Nc1ncc(Cl)c(Nc2ccccc2NS(C)(=O)=O)n1 [Example 13] ?
# output f

# input Try COc1cc(N2CCN(C)CC2)ccc1Nc1ncc(Cl)c(Nc2ccccc2NS(C)(=O)=O)n1 [Example 28] next.
# output t

# input Please give the result for COc1cc(C2CCNCC2)ccc1Nc1ncc(Br)c(Nc2ccccc2NS(N)(=O)=O)n1 [Example 7] too.
# output f

# input Entry COc1cc(N2CCNCC2)ccc1Nc1ncc(Cl)c(Nc2ccccc2NS(C)(=O)=O)n1 [Example 23] please
# output f

----------
target: EGFR del19/T790M/C797S (Homo sapiens, UniProt P00533, C797S/DEL746-750/T790M); assay: HTRF enzyme assay, EGFR del19/T790M/C797S; format: biochemical
Sequence (P00533 with tags, fused parts or gaps C797S/DEL746-750/T790M limits assumed): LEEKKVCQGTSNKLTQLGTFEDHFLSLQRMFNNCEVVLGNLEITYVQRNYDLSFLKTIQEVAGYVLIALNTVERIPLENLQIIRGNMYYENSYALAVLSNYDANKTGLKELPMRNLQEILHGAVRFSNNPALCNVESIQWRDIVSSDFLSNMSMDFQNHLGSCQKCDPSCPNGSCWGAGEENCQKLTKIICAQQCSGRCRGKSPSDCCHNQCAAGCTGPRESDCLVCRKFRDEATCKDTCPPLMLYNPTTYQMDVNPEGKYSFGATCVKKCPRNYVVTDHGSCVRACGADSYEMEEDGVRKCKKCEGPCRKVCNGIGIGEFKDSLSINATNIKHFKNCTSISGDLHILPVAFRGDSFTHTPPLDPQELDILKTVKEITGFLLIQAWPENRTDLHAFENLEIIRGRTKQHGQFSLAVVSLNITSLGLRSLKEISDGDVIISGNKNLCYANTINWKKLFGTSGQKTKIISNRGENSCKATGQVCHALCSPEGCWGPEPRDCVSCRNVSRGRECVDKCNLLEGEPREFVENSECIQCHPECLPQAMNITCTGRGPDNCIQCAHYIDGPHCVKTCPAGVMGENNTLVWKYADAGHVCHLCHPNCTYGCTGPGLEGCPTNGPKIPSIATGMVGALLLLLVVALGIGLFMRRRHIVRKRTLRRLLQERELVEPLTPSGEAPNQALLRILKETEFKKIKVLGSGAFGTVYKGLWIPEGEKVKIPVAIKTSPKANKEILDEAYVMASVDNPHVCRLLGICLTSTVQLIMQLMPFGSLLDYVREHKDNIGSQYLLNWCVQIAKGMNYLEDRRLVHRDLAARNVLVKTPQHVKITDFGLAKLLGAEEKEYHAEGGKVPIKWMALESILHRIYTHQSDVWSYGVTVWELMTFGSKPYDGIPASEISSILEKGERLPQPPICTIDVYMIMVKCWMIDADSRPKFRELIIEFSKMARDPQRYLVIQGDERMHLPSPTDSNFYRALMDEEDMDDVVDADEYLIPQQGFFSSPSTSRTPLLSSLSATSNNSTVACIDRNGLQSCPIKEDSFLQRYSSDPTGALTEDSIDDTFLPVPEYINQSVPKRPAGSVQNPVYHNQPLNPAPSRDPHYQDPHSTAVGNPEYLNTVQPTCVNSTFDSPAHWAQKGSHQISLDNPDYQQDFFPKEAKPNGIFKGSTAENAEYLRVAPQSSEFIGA
propertyLabel: pIC50
// scale note: pIC50 = -log10(conc_M); give the bare number

# input Please state recorded pIC50 (tested on EGFR del19/T790M/C797S (Homo sapiens, UniProt P00533, C797S/DEL746-750/T790M)) of COc1cc(N2CCC(N3CCN(CCO)CC3)CC2)ccc1Nc1ncc(Cl)c(Nc2ccccc2NS(C)(=O)=O)n1 [Example 22]
# output 9.10

# input COc1cc(N2CCC(N3CCN(C)CC3)CC2)ccc1Nc1ncc(Cl)c(Nc2ccccc2NS(C)(=O)=O)n1 [Example 10] ?
# output 9.70

----------
target: EGFR del19/T790M/C797S (Homo sapiens, UniProt P00533, C797S/DEL746-750/T790M); assay: HTRF enzyme assay, EGFR del19/T790M/C797S; assay type: biochemical; conditions: HTRF, recombinant enzyme; read-out: EGFR del19/T790M/C797S IC50
pIC50: −log10 of the molar value.
Record True whenever pIC50 is at 8 or higher; record False when lower.

# input Identify whether the reported pIC50 of the following compound is 8 or greater: COc1cc(N2CCNCC2)ccc1Nc1ncc(Br)c(Nc2ccccc2NS(N)(=O)=O)n1
# output True

# input Continue with COc1cc(N2CCN(C3CCNCC3)CC2)ccc1Nc1ncc(Cl)c(Nc2ccccc2NS(C)(=O)=O)n1
# output True

# input Now consider COc1cc(N2CCC(N3C[C@@H](C)N[C@@H](C)C3)CC2)ccc1Nc1ncc(Cl)c(Nc2ccccc2NS(C)(=O)=O)n1 and answer again.
# output True

# input And COc1cc(N2CCC(N3CCOCC3)CC2)ccc1Nc1ncc(Cl)c(Nc2ccccc2NS(C)(=O)=O)n1 ?
# output True

# input Then COc1cc(C2CCN(C3CCN(C(C)=O)CC3)CC2)ccc1Nc1ncc(Cl)c(Nc2ccccc2NS(C)(=O)=O)n1 ?
# output False

# input Again, but for COc1cc(C2CCN(C3CCNCC3)CC2)ccc1Nc1ncc(Cl)c(Nc2ccccc2NS(C)(=O)=O)n1
# output False

# input Would you kindly repeat that for COc1cc(C2CCN(CCO)CC2)ccc1Nc1ncc(Cl)c(Nc2ccccc2NS(C)(=O)=O)n1 ?
# output False

# input Please do the same for COc1cc(C2CCN(C)CC2)ccc1Nc1ncc(Cl)c(Nc2ccccc2NS(C)(=O)=O)n1 as well.
# output True

# input Moving on to COc1cc(N2CCC(N3CCCC3)CC2)ccc1Nc1ncc(Cl)c(Nc2ccccc2NS(C)(=O)=O)n1
# output True

# input Record: COc1cc(N2CCC(N3CCN(C(C)=O)CC3)CC2)ccc1Nc1ncc(Cl)c(Nc2ccccc2NS(C)(=O)=O)n1
# output False

Reference for the values: patent US11253516B2
